Listed variants paired with reported protein stability index
B1: TRIM55 (parent)
chain: YKSFSKEQQTMDNLEKQLICPICL

- Variants of: B1
- assay: protein stability index of a GFP-peptide fusion (GPS, HEK-293T) (PSI 1-6); higher = more stable;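 further: lentivirally expressed fusions sorted by FACS into six bins by GFP to DsRed ratio, PSI derived from sequencing read proportions per bin multiplied by bin number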
- settings: c terminus: a fixed tail appended
endpoint: protein stability index

INSERT INTO measurements (change, result) VALUES
  ('I22V', 1.96),
  ('K6Y', 1.98),
  ('M11C', 2.47),
  ('Y1R', 2.83),
  ('K16F', 2.14),
  ('D12V', 1.89),
  ('M11T', 2.12),
  ('Y1C', 2.7),
  ('S3T', 2.69),
  ('L24I', 2.7),
  ('M11H', 1.82),
  ('I19Y', 2.02),
  ('I19M', 1.88),
  ('K16Q', 1.83),
  ('N13I', 1.77),
  ('E7V', 1.6),
  ('L18Q', 2.08),
  ('Q8S', 2.29),
  ('K6C', 2.41),
  ('E15Q', 2.58),
  ('T10S', 2.46),
  ('K2H', 1.29),
  ('L14E', 3.2),
  ('F4H', 2.8),
  ('F4Q', 2.37),
  ('I19F', 2.09),
  ('C23S', 2.6),
  ('L18I', 2.31),
  ('K2N', 2.12),
  ('Q9T', 1.57),
  ('Q17S', 1.72),
  ('P21V', 2.08),
  ('S5W', 1.37),
  ('K16P', 2.57),
  ('P21T', 1.77),
  ('L14M', 2.53),
  ('K2R', 1.73),
  ('L24N', 2.46),
  ('K6A', 2.91),
  ('E7K', 2.25),
  ('K2W', 1.96),
  ('S3M', 1.85),
  ('L18R', 3.17),
  ('K16H', 2.89),
  ('E15H', 2.27),
  ('D12F', 2.68),
  ('Q8W', 1.66),
  ('C23Y', 2.04),
  ('I19T', 2.76),
  ('Y1M', 2.5),
  ('Q8P', 2),
  ('K6G', 2.15),
  ('E15K', 2.09),
  ('S3R', 2.43),
  ('Q17Y', 2.02),
  ('N13A', 1.57),
  ('N13M', 1.69),
  ('T10K', 2.54),
  ('P21S', 3.16),
  ('E15L', 1.05),
  ('C23D', 3.64),
  ('P21G', 2.21),
  ('L24P', 3.03),
  ('S5M', 2.11),
  ('L18E', 3.19),
  ('Q17M', 1.48),
  ('L24K', 2.63),
  ('L24F', 2.15),
  ('M11K', 2.54),
  ('F4G', 2.49),
  ('S5F', 1.71),
  ('I19V', 2.06),
  ('T10C', 2.82),
  ('F4E', 2.49),
  ('S3E', 2.25),
  ('I22E', 2.93),
  ('L14F', 1.88),
  ('L14T', 3.03),
  ('F4M', 2),
  ('I22H', 2.15),
  ('C23K', 3.13),
  ('D12A', 2.04),
  ('Q9P', 2.16),
  ('E7L', 1.35),
  ('L14N', 2.73),
  ('K6T', 2.09),
  ('P21Q', 2.4),
  ('T10Q', 2.31),
  ('T10M', 1.9),
  ('Q9E', 2.08),
  ('C23P', 1.86);
